- target or test system: HCV NS5B RdRp genotype 1b (Hepatitis C virus genotype 1b)
- Construct: The protein was expressed with an 18 amino acid C-terminal truncation to enhance the solubility; made in house; host or cells: E. coli BL21(DE3), pET21a vector
- Sequence (Q9WMX2 2420-2992): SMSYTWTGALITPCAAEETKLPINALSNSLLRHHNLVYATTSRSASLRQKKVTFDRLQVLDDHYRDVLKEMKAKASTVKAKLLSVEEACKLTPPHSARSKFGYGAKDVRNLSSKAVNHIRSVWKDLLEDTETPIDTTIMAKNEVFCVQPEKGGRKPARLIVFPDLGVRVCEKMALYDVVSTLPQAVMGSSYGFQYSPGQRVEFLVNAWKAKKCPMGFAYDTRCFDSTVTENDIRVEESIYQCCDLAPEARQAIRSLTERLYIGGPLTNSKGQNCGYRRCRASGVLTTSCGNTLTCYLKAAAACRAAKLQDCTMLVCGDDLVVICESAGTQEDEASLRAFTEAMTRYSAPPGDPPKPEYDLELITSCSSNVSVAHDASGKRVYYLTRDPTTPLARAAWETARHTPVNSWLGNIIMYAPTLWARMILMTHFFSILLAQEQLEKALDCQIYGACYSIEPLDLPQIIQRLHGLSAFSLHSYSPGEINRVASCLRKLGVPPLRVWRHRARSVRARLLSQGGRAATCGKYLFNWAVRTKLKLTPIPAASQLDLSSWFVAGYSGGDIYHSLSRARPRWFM
- assay method text: Standard HCV NS5B RdRp enzyme assay
- Type: biochemical
- test conditions: Table 1b; HCV NS5B RdRp genotype 1b; read-out: IC50
pIC50: −log10 of the molar value.
The following compounds are listed with their measured pIC50 values.

### Prompt Which value of pIC50 has been reported for CNC(=O)c1c(-c2ccc(F)cc2)oc2ccc(-c3cc(C(=O)NCC(C)C)ccc3OC3CCC(N)C3)cc12 (stereo not shown) in the records?
### Response > 6.60

### Prompt Which value of pIC50 has been reported for `CNC(=O)c1c(-c2ccc(F)cc2)oc2ccc(-c3cc(C(=O)NC(C)(C)C4CC4)ccc3C)cc12` in the records?
### Response > 6.60

### Prompt Which value of pIC50 has been reported for `CNC(=O)c1c(-c2ccc(F)cc2)oc2ccc(-c3cc(C(=O)NC4(c5nnc(-c6ccncc6)[nH]5)CC4)ccc3C)cc12` in the records?
### Response > 6.60
